EC50 overview
test-system: T1, human adenosine A2A receptor (A2aR) (human, UniProt P29274 1-412)
T1 construct: Assays used HEK293 cells stably overexpressing human A2aR (BPS Bioscience 79381), human A2aR-expressing CHO cells, or endogenous A2aR on human PBMC; also called human A2aR; hA2aR
T1 sequence (P29274 whole entry): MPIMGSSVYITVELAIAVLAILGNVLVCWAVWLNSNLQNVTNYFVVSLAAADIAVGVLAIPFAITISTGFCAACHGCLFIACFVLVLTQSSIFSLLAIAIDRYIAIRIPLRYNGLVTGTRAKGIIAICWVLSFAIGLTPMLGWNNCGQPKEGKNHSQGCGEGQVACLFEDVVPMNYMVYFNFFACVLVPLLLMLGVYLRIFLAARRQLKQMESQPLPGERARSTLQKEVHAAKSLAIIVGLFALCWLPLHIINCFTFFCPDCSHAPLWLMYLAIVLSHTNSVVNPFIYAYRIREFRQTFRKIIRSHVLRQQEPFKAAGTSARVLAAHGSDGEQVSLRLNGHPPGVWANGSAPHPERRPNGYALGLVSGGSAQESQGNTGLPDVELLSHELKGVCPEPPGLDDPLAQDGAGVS
assay-method-text: flow cytometry titration, HEK293-hA2aR cells, purified antibody
attribute-measured: EC50 (pM)

binder="Hu3F6-H2/Hu3F6-L3 (antibody, human IgG1, V domains shown, Human IgG1 FES (L234F, L235E, P331S) and human Ig kappa constant domains; also called Hu3F6 VH2/VL3) VH: EVQLVQSGAEVKKPGASVKVSCKTSGFAFTSYWMNWVRQAPGQGLEWMGRIDPSDSEAHYHHKFWGRVTMTVDTSTSTVYMELSSLRSEDTAVYYCLRSLYGKGDYWGHGTTVTVSS VL: DVVMTQSPLSLPVTLGQPASISCRSSQSLVHRNGNTYLEWYQQRPGQSPRLLIYKVSNRFSGVPDRFSGSGSGTDFTLKISRVEAEDVGVYYCYQGSHVPLTFGGGTKVEIK" units_text=pM test_result=650
binder="Hu3F8-H4/Hu3F8-L5 (antibody, human IgG1, V domains shown, Human IgG1 FES (L234F, L235E, P331S) and human Ig kappa constant domains; also called Hu3F8 VH4/VL5) VH: EVQLVQSGAEVKKPGASVKVSCKASGFTFTRYWMNWVRQAPGQGLEWIGRIDPSDSETHYNHKFWGRATLTVDKSTSTVYMELSSLRSEDTAVYYCLRSLYGKGDYWGQGTTVTVSS VL: DVVMTQSPLSLPVTPGEPASISCRSSQSIVHSNGNTYLEWYLQKPGQSPQLLIYKVSNRFSGVPDRFSGSGSGTDFTLKISRVEAEDVGVYYCYQGSHVPLTFGGGTKVEIK" units_text=pM test_result=750
binder="Hu3F6-H5/Hu3F6-L4 (antibody, human IgG1, V domains shown, Human IgG1 FES (L234F, L235E, P331S) and human Ig kappa constant domains; also called Hu3F6 VH5/VL4) VH: EVQLVQSGAEVKKPGASVKVSCKTSGFAFTSYWMNWVRQAPGQGLEWIGRIDPSDSEAHYAHKFWGRATLTVDKSSSTVYMELSSLRSEDTAVYYCLRSLYGKGDYWGHGTTVTVSS VL: DIVMTQTPLSLSVTPGQPASISCRSSQSLVHRNGNTYLEWYLQKPGQSPQLLIYKVSNRFSGVPDRFSGSGSGTDFTLKISRVEAEDVGVYYCYQGSHVPLTFGGGTKVEIK" units_text=pM test_result=520
binder="Hu3F6-H5/Hu3F6-L5 (antibody, human IgG1, V domains shown, Human IgG1 FES (L234F, L235E, P331S) and human Ig kappa constant domains; also called Hu3F6 VH5/VL5; Hu3F6-VH5/VL5) VH: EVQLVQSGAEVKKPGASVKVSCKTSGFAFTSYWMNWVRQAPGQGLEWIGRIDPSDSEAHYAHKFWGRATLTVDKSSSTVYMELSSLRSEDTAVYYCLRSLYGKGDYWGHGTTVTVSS VL: DVVMTQTPLSLSVTPGQPASISCRSSQSLVHRNGNTYLEWYLQKPGQSPQLLIYKVSNRFSGVPDRFSGSGSGTDFTLKISRVEAEDVGVYYCYQGSHVPLTFGGGTKVEIK" units_text=pM test_result=590
binder="Hu3F8-H4/Hu3F8-L4 (antibody, human IgG1, V domains shown, Human IgG1 FES (L234F, L235E, P331S) and human Ig kappa constant domains; also called Hu3F8 VH4/VL4) VH: EVQLVQSGAEVKKPGASVKVSCKASGFTFTRYWMNWVRQAPGQGLEWIGRIDPSDSETHYNHKFWGRATLTVDKSTSTVYMELSSLRSEDTAVYYCLRSLYGKGDYWGQGTTVTVSS VL: DIVMTQSPLSLPVTPGEPASISCRSSQSIVHSNGNTYLEWYLQKPGQSPQLLIYKVSNRFSGVPDRFSGSGSGTDFTLKISRVEAEDVGVYYCYQGSHVPLTFGGGTKVEIK" units_text=pM test_result=790
binder="Hu3F6-H2/Hu3F6-L5 (antibody, human IgG1, V domains shown, Human IgG1 FES (L234F, L235E, P331S) and human Ig kappa constant domains; also called Hu3F6 VH2/VL5) VH: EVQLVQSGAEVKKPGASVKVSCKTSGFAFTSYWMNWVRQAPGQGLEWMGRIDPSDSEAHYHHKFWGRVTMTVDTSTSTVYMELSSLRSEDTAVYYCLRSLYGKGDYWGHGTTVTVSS VL: DVVMTQTPLSLSVTPGQPASISCRSSQSLVHRNGNTYLEWYLQKPGQSPQLLIYKVSNRFSGVPDRFSGSGSGTDFTLKISRVEAEDVGVYYCYQGSHVPLTFGGGTKVEIK" units_text=pM test_result=530
binder="Hu3F8-H3/Hu3F8-L5 (antibody, human IgG1, V domains shown, Human IgG1 FES (L234F, L235E, P331S) and human Ig kappa constant domains; also called Hu3F8 VH3/VL5) VH: EVQLVQSGAEVKKPGASVKVSCKASGFTFTRYWMNWVRQAPGQGLEWIGRIDPSDSETHYNHKFWGRATLTVDTSTSTVYMELSSLRSEDTAVYYCLRSLYGKGDYWGQGTTVTVSS VL: DVVMTQSPLSLPVTPGEPASISCRSSQSIVHSNGNTYLEWYLQKPGQSPQLLIYKVSNRFSGVPDRFSGSGSGTDFTLKISRVEAEDVGVYYCYQGSHVPLTFGGGTKVEIK" units_text=pM test_result=830
